Where these numbers come from: ChEMBL document CHEMBL1201862

Tested on: CCRF-CEM
Assay: NCI tumour cell line growth inhibition, 48 h
The source made the active and inactive calls. Cut-off read from the data, not from the text of the source: active = GI50 up to about 1.1 µM and inactive = higher.
Please reply with one of these outcomes: T for active, F for inactive

Q: Record request — test call for COc1cc2nc(-c3ccccc3)cc(O)c2cc1OC
A: F

Q: Record request — test call for COc1ccc2cc(NC(=O)Nn3cnnc3)ccc2c1
A: F

Q: Record request — test call for COC(=O)C#Cc1ccc([N+](=O)[O-])cc1
A: T

Q: Record request — test call for Cc1c(C(=O)N2CCN(c3ccc([N+](=O)[O-])cc3)CC2)[n+]([O-])c2cc(Cl)c(Cl)cc2[n+]1[O-]
A: F

Q: Record request — test call for CC(=O)OC1C(O)C(C)OC(OC(=O)C2CCC3C(C2)OC2(CC(OC(=O)/C=C/c4ccccc4)C(C)CO2)C32CO2)C1OC1OC(C)C(O)C(O)C1O (stereo not given)
A: T
